B1: library; numbered along this chain (parent)
chain: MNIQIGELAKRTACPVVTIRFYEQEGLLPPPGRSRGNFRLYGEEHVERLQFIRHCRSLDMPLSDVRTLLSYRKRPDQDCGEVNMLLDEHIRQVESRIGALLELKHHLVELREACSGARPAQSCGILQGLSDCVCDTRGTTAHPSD

Variants of: B1
Assay Remarks: sfGFP reporter fluorescence (15 h) (µM FITC); higher = higher leak
Condition Info: library round: Round 0; ligand: none
Property Measured: sfGFP reporter fluorescence
Give bare numbers.

Below, each entry is followed by its recorded sfGFP reporter fluorescence result.
MNIQIGELAKRTACPVVTIRFYEQEGLLPPPGRSRGNFRLYGEEHVERLQFIRHCRSLDMPLSDVRTLLSYRKRPDQDCGEVNMLLDEHIRQVESRIGALLELKHHLVELREACSGARPAQSCGILQGLSDCVCKTRGTTAHPSD [D135K] = 0.0618
MNIQIGELAKRTACPRVTIRFYEQEGLLPPPGRSRGNFRLYGEEHVERLQFIRHCRSLDMPLSDVRTLLSYRKRPDQDCGEVNMLLDEHIRQVESRIGALLELKHHLVELREACSGARPAQSCGILQGLSDCVCDTRGTTAHPSD [V16R] = 0.0671
MNIQIGELAKRTACPVVTIAFYEQEGLLPPPGRSRGNFRLYGEEHVERLQFIRHCRSLDMPLSDVRTLLSYRKRPDQDCGEVNMLLDEHIRQVESRIGALLELKHHLVELREACSGARPAQSCGILQGLSDCVCDTRGTTAHPSD [R20A] = 0.0577
MNIQIGELAKRTACPVVTIRFYEQEGLLPPPGRSRGNFRLYGEEHVERLQFIRHCRSLAMPLSDVRTLLSYRKRPDQDCGEVNMLLDEHIRQVESRIGALLELKHHLVELREACSGARPAQSCGILQGLSDCVCDTRGTTAHPSD [D59A] = 0.0693
MNIQIGELAKRTACPVVTIRFYEQEGLLPPPGRSRGNFRLYGEEHVERLQFIRHCRSLDMPLSDVRTLLSYRKRPDQDCGEVNMLLDEHIRQVESRIGALLELKHHLVELREACSGARPAQSCGILQGLSDCVCDTRGTTAHNSD [P143N] = 0.0568

Hey, can you go through the list below and give me sfGFP reporter fluorescence for every item?
1. MNIQIGELAKRTACPVVTIRFYEQEGLLPPPGRSRGNFRLYGEEHVERLQFIRHCRSLDMPLSDVRTLLSYRKRPDQDCGEVNMLLDEHIRQVESRIGALLELKHHLVELREAHSGARPAQSCGILQGLSDCVCDTRGTTAHPSD [C114H]
2. MNIQIEELAKRTACPVVTIRFYEQEGLLPPPGRSRGNFRLYGEEHVERLQFIRHCRSLDMPLSDVRTLLSYRKRPDQDCGEVNMLLDEHIRQVESRIGALLELKHHLVELREACSGARPAQSCGILQGLSDCVCDTRGTTAHPSD [G6E]
3. MNIQIGELAKRTACPVVTIRFYEQEGLLPPPGRSRGNFRLYGEEHVERLQFIRHCRSLDMPLSDVRTLLSYRKRPDQDCGEVNMWLDEHIRQVESRIGALLELKHHLVELREACSGARPAQSCGILQGLSDCVCDTRGTTAHPSD [L85W]
4. MNIQIGELAKRTACPNVTIRFYEQEGLLPPPGRSRGNFRLYGEEHVERLQFIRHCRSLDMPLSDVRTLLSYRKRPDQDCGEVNMLLDEHIRQVESRIGALLELKHHLVELREACSGARPAQSCGILQGLSDCVCDTRGTTAHPSD [V16N]

*A*
1. 0.0581
2. 0.0636
3. 0.0618
4. 0.0643

Hey, can you go through the list below and give me sfGFP reporter fluorescence for every item?
1. MNIQIGELAKRTACPVVTIRFYEQEGLLPPPGRSRGNFRLYGEEHVERLQFIRHCRSLDMPLSDVRTLLSYRKRPDQDCGEVNMLLDEHIRQVESRIGALLELKHHLVELNEACSGARPAQSCGILQGLSDCVCDTRGTTAHPSD [R111N]
2. MNIQIGELAKRTACPVVTIRFYEQEGLLPPPGRSRGNFRLYGEEHVERLQFIRHCRSLDMPLSDVRTLLSYRKAPDQDCGEVNMLLDEHIRQVESRIGALLELKHHLVELREACSGARPAQSCGILQGLSDCVCDTRGTTAHPSD [R74A]

*A*
[0.0583, 0.0596]

Hey, can you go through the list below and give me sfGFP reporter fluorescence for every item?
1. MNIQIGELAKRTACPVVTIRFYEQEGLLPPPGRSRGNFRLYGEEHHERLQFIRHCRSLDMPLSDVRTLLSYRKRPDQDCGEVNMLLDEHIRQVESRIGALLELKHHLVELREACSGARPAQSCGILQGLSDCVCDTRGTTAHPSD [V46H]
2. MNIQIGELAKRTACPVVTIRFYEQEGLLPPPGRSRGNFRLYGHEHVERLQFIRHCRSLDMPLSDVRTLLSYRKRPDQDCGEVNMLLDEHIRQVESRIGALLELKHHLVELREACSGARPAQSCGILQGLSDCVCDTRGTTAHPSD [E43H]
3. MNIQIGELAKRTACPVVTIRFYEQEGLLPPPGRSRGNFRLYGEEHVERLQFIRHMRSLDMPLSDVRTLLSYRKRPDQDCGEVNMLLDEHIRQVESRIGALLELKHHLVELREACSGARPAQSCGILQGLSDCVCDTRGTTAHPSD [C55M]
4. MNIQIHELAKRTACPVVTIRFYEQEGLLPPPGRSRGNFRLYGEEHVERLQFIRHCRSLDMPLSDVRTLLSYRKRPDQDCGEVNMLLDEHIRQVESRIGALLELKHHLVELREACSGARPAQSCGILQGLSDCVCDTRGTTAHPSD [G6H]
5. MNIQIGELAKRTACPVVTIRFYEQEGLLPPPGRSRGNFRLYGEEHVERLQFIRHCRSLDMPLSDVRTLLSYRKRPDQDCGEVNMLLDEHIRQVESRIGALLELKHHLVELREACSGARPAQSLGILQGLSDCVCDTRGTTAHPSD [C123L]

*A*
[0.0557, 0.0669, 0.0645, 0.0627, 0.0559]

Hey, can you go through the list below and give me sfGFP reporter fluorescence for every item?
1. MNIQIGELAKRTACPVVTIRFYEQEGLLPPPGRSRGNFRLYGEEHVERLQFIRHCRSLDMPLSDVRTLLSYRKRPDQDCGEVNMLLDEHIRQVESRIGALLELKHHLVELREACSGARPAQSCGIKQGLSDCVCDTRGTTAHPSD [L126K]
2. MNIQIGELAKRTACPVVTIRFYEQEGLLPPPGRSRGNFRLYGEEHVERLQFIRHCRSLDMPLSDVRTLLSYRKRPDQDCGEVNMLLDEHIRQVESRIGALLELKHHLVELREACSGARPAQSCGDLQGLSDCVCDTRGTTAHPSD [I125D]
3. MNIQIGELAKRTACPVVTIRFYEQEGLLPPPGRSRGNFRLYGEEHVERLQFIRHCRSLDMPLSDVRTLLSYRKRPDQDCGEVNMLLDEVIRQVESRIGALLELKHHLVELREACSGARPAQSCGILQGLSDCVCDTRGTTAHPSD [H89V]
4. MNIQIGELAKRTACPVVTIRFYEQEGLLPPPGRSRGNFRLYGEEHVERLQFIRHCRSLDMPLSDVRTLLSYRKRPDQDCGENNMLLDEHIRQVESRIGALLELKHHLVELREACSGARPAQSCGILQGLSDCVCDTRGTTAHPSD [V82N]
5. MNIQIGELAKRTACPVVTIRFYEQEGLLPPPGRSRGNFRLYGEEHVERLQFIRHCRSLDMPLSDVRTLLSYRKRPDQDCGEVNMLLDEHSRQVESRIGALLELKHHLVELREACSGARPAQSCGILQGLSDCVCDTRGTTAHPSD [I90S]
6. MNIQIGELAKRTACPVVTIRFYEQEGLLPPPGRSRGNFRLYGEEHVERLQFIRHCRSLDMPLSDVRTLLSYRKRPDQDCGEVNMLLDEHIRQVESRIGALLELVHHCVELREACSGARPAQSCGILQILSDCVCDTRGTTAHPSD [K104V L107C G128I]

*A*
0.0597
0.0585
0.0592
0.0597
0.0601
0.483

Hey, can you go through the list below and give me sfGFP reporter fluorescence for every item?
1. MNIQIGELAKRTACPVVTIRFYEQEGLLPPPGRSRGNFRLYGEEHVERLQFIRHCRSLDMPLSDVRTLLSYRKRPDQDCGEVNMLLDEHHRQVESRIGALLELKHHLVELREACSGARPAQSCGILQGLSDCVCDTRGTTAHPSD [I90H]
2. MNIQIGELAKRTACPVVTIRFYEQEGLLPPPGRSRGNFRLYGEEHVERLQFIRHCRSLDMPLSDVRTLLSYRKRPDQDCGEVNMLLDEHIRQVESRIGALLELKHHLVELREACSGARPAQSCGILQGLSDCVCDTRGTTAHQSD [P143Q]
3. MNIQIGELAKRTACPVVTIRFYEQEGLLPPPGRSRGNFRLYGEEHVERLQFIRHCRSLDMPLSDVRTLLSYRKRPDQDCGEVNMNLDEHIRQVESRIGALLELKHHLVELREACSGARPAQSCGILQGLSDCVCDTRGTTAHPSD [L85N]

*A*
[0.0619, 0.0566, 0.0564]

Hey, can you go through the list below and give me sfGFP reporter fluorescence for every item?
1. MNIQIGELAKRTACPVVTIRFYEQEGLLPPPGRSRQNFRLYGEEHVERLQFIRHCRSLDMPLSDVRTLLSYRKRPDQDCGEVNMLLDEHIRQVESRIGALLELKHHLVELREACSGARPAQSCGILQGLSDCVCDTRGTTAHPSD [G36Q]
2. MNIQIGELAKRTACPVVTIRFYEQEGLLPPPGRSRGNFRLYGEEHVERLQFIRHCRSLDMPLSDVRTLLSYRKRPDQDCGEVNMLLDEHIRQVESRIGALLELKHHLVELREACSGARPAQSCGILQGLSDCVWDTRGTTAHPSD [C134W]
3. MNIQIGELAKRTACPVVTIRFYEQEGLLPPPGRSRGNFRLYGEEHVERLQFIRHCRSLDMPLSDVRTLLSYRKRPDQDGGEVNMLLDEHIRQVESRIGALLELKHHLVELREACSGARPAQSCGILQGLSDCVCDTRGTTAHPSD [C79G]

*A*
1: 0.0592; 2: 0.145; 3: 0.0553

Hey, can you go through the list below and give me sfGFP reporter fluorescence for every item?
1. MNIQIGELAKRTACPVVTIRFYEQEGLLPPPGRSRGNFRLYGEEHVERLQFIRHCRSLDMPLSDVRTLLSYRKRPDQDCGEVNMLLDEHIRQVESRIGALLELKHHLVELREACSGARPAQSTGILQGLSDCVCDTRGTTAHPSD [C123T]
2. MNIQIGELAKRTACPVVTICFYEQEGLLPPPGRSRGNFRLYGEEHVERLQFIRHCRSLDMPLSDVRTLLSYRKRPDQDCGEVNMLLDEHIRQVESRIGALLELKHHLVELREACSGARPAQSCGILQGLSDCVCDTRGTTAHPSD [R20C]
3. MNIQIGELAKRTACPVVTIRFYEQEGLLPPPGRSRINFRLYGEEHVERLQFIRHCRSLDMPLSDVRTLLSYRKRPDQDCGEVNMLLDEHIRQVESRIGALLELKHHLVELREACSGARPAQSCGILQGLSDCVCDTRGTTAHPSD [G36I]
4. MNIQIGELAKRTACPVVTIRFYEQEGGLPPPGRSRGNFRLYGEEHVERLQFIRHCRSLDMPLSDVRTLLSYRKRPDQDCGEVNMLLDEHIRQVESRIGALLELKHHLVELREACSGARPAQSCGILQGLSDCVCDTRGTTAHPSD [L27G]
5. MNIQIGELAKRTACPVVTIRFYEQEGLLPPPGRSRGNFRLYGEEHVERLQFIRHCRSLDMPLSDVRTLLSYRKRPDQDCGEVNMLLDEHIRQVMSRIGALLELKHHLVELREACSGARPAQSCGILQGLSDCVCDTRGTTAHPSD [E94M]
6. MNIQIGELAKRTACPVVTIRFYEQEGLLPEPGRSRGNFRLYGEEHVERLQFIRHCRSLDMPLSDVRTLLSYRKRPDQDCGEVNMLLDEHIRQVESRIGALLELKHHLVELREACSGARPAQSCGILQGLSDCVCDTRGTTAHPSD [P30E]

*A*
[0.0586, 0.063, 0.0559, 0.0608, 0.0581, 0.0621]

Hey, can you go through the list below and give me sfGFP reporter fluorescence for every item?
1. MNIQIGELAKRTACPVVTIRFYEQEGLLPPPGRSRGNFQLYGEEHVERLQFIRHCRSLDMPLSDVRTLLSYRKRPDQDCGEVNMLLDEHIRQVESRIGALLELKHHLVELREACSGARPAQSCGILQGLSDCVCDTRGTTAHPSD [R39Q]
2. MNIQIGELAKRTACPVVTIRFYEQEGLLPPPGRSRGNFRLYGEEHVERLQFIRHCRSLDMPLSDVRTLLSYRKRPDQDCGEVNMLLDEHIRQVESRIGALLELKHHLVELREACSGARPAQSCGILQGLSACVCDTRGTTAHPSD [D131A]
3. MNIQIGELAKRTACPVVTIRFYEQEGLLPPPGRSRGNFRLYGEEHVERLQFIRHCRSLDMPLSDVRTLLSYRKRPDQDCGEVNMLLDEHIRQVPSRIGALLELKHHLVELREACSGARPAQSCGILQGLSDCVCDTRGTTAHPSD [E94P]
4. MNIQIGELAKRTACPVVTIRFYEQEGLLPPPGRSRGNFRLYGEEHVERLQFIRHCRSLDMPASDVRTLLSYRKRPDQDCGEVNMLLDEHIRQVESRIGALLELKHHLVELREACSGARPAQSCGILQGLSDCVCDTRGTTAHPSD [L62A]
5. MNIQIGELAKRTACPVVTIRFYEQEGLLPPPGRSRGNFRLYGEEHVERLQFIRHCRSLDMPLSDVRTLLSYRKRPDQDCGEVNMLLDEHIRQVESRIGALLELKHHLVELREACSGARPAQSCGILQTLSDCVCDTRGTTAHPSD [G128T]
6. MNIQIGELAKRTACPVVTIRFYEQEGLLPPPGRSRGNFRLYGEEHVERLQFIRHCRSLDMPLSDVRTLLSYRKRPDQDCGEVNMLLDEHIRQVESRIGALLELYHHLVELREACSGARPAQSCGILQGLSDCVCDTRGTTAHPSD [K104Y]

*A*
1. 0.0612
2. 0.0691
3. 0.0535
4. 0.0647
5. 0.0647
6. 0.059

All figures here come from the supplement of paper PMC12783771.
